pIC50: −log10 of the molar value.
# pIC50 against Receptor-type tyrosine-protein kinase FLT3 (Homo sapiens), merged from multiple literature sources
# Sequence (P36888 whole entry): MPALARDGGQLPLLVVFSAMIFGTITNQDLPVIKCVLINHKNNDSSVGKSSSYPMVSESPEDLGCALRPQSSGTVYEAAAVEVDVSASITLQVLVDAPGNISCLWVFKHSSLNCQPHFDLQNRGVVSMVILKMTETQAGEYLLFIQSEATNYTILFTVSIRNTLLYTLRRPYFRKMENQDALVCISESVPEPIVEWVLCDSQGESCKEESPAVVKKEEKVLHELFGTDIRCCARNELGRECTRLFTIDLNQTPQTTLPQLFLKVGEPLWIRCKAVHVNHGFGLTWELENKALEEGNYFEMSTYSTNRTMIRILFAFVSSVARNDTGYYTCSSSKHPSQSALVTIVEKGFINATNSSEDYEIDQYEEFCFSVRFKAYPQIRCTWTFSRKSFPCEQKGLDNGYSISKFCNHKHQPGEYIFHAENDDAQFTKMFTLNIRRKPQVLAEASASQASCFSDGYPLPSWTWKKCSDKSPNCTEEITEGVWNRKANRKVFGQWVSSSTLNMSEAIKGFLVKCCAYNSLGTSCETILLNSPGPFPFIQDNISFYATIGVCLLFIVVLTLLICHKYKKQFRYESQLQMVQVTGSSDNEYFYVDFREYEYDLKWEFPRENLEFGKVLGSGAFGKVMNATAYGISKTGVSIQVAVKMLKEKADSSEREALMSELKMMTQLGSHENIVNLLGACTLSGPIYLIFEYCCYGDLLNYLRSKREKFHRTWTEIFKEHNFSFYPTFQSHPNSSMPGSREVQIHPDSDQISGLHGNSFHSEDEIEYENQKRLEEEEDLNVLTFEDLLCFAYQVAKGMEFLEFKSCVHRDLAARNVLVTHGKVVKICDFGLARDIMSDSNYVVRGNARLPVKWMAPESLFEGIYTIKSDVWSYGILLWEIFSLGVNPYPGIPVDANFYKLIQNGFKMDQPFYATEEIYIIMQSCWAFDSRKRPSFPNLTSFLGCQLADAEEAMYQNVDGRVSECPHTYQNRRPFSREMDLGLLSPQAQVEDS
assay_metric: pIC50

Examples with answers:
| compound | pIC50 |
| --- | --- |
| C=CCc1cccc(/C=N/NC(=O)Nc2ccc(Oc3ccnc4cc(OCCCN5CCCCC5)c(OC)cc34)c(F)c2)c1O | 6.44 |
| O=C(Nc1ccc(-c2ccnc(Nc3ccc(N4CCOCC4)cc3)n2)cc1)[C@H]1CCCN1 | 6.85 |
| CN1CCN(Cc2ccc(/C=C/c3n[nH]c4cc([C@@H]5C[C@@]56C(=O)Nc5ccccc56)ccc34)cc2)CC1 (relative stereo) | 6.92 |
| O=C(Nc1ccc(N2CCNCC2)cc1)c1n[nH]cc1Nc1cc(-c2ccoc2)ncn1 | 7.38 |
| C=CCCCCn1cc(-c2ccc(NC(=O)Nc3cc(C(C)(C)C)on3)cc2)c2c(N)ncnc21 | 7.15 |

a = Cc1ccc(-n2cc(-c3ccccn3)nn2)cc1
b = CN(C)Cc1ccc(/C=C/c2n[nH]c3cc(/C=C4/C(=O)Nc5ccccc54)ccc23)cc1
Thinking about recorded pIC50 values, which is higher, a or b ? The response must carry the label of the picked entry.
b
(b: 7.46, a: 5.96)
